Item-by-item account of Ki
- Experimental Target: human GlyT1c transporter (Homo sapiens, UniProt P48067)
- Construct: expressed in transfected cells; host or cells: CHO cells (recombinant; line hGlyT1c_5_CHO is named for the uptake assay)
- Sequence (P48067 1-706): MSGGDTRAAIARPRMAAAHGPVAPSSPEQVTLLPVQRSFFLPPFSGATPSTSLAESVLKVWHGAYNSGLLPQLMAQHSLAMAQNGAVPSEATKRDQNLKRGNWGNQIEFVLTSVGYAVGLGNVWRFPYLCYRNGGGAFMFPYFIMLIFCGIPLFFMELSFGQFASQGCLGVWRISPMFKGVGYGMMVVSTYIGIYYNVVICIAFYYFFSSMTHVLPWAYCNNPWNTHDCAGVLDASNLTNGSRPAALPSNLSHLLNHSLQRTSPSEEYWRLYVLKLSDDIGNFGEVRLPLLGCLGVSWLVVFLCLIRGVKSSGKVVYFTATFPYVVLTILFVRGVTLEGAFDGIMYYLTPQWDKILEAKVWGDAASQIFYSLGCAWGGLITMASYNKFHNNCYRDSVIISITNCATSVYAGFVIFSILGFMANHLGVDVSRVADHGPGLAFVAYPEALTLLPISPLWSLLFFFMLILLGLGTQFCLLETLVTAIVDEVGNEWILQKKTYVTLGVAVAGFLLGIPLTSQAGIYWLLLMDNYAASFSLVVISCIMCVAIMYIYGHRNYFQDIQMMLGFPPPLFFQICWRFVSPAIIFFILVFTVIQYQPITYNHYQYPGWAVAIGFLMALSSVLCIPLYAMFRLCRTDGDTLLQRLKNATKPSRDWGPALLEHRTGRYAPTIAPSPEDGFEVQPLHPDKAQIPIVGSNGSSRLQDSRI
- Assay Protocol: Radioligand binding assay using recombinant CHO cell membranes expressing human GlyT1
- Measurement Parameters: radioligand binding to human GlyT1c transporter-expressing membranes

Consider the following illustrative entries.
| Molecule | Ki |
| --- | --- |
| Cn1cnc(S(=O)(=O)N2C[C@@H]([C@@H]3CCCOC3)[C@H](Nc3cccc(OC(F)(F)F)c3)C2)c1 (mixture of isomers) | ≤ 0.1 µM |
| Cn1cnc(S(=O)(=O)N2C[C@@H](Nc3ccc(F)c(Cl)c3)[C@H](c3ccccc3Cl)C2)c1 (relative stereo) | ≤ 0.1 µM |
| Cn1cnc(S(=O)(=O)N2C[C@@H]([C@@H]3CCCOC3)[C@H](Nc3cccc(OCc4ccccc4)c3)C2)c1 (mixture of isomers) | ≤ 1 µM |
| Cc1nc(CN[C@H]2CN(S(=O)(=O)c3cn(C)cn3)C[C@@H]2c2ccccc2)cs1 | ≤ 10 µM |
| Cc1ccccc1N[C@@H]1CN(S(=O)(=O)c2cn(C)cn2)C[C@H]1c1ccc(F)cc1 (relative stereo) | ≤ 1 µM |

Any idea what its Ki is? The molecule is Cn1cnc(S(=O)(=O)N2C[C@@H](Nc3cccc(Cl)c3)[C@H](c3ccccc3)C2)c1 (relative stereo)
≤ 0.1 µM

I would be grateful if you could share the reported Ki for Cn1cnc(S(=O)(=O)N2C[C@@H](C(=O)Nc3cc(C(F)(F)F)ccn3)[C@H](c3ccc(F)cc3)C2)c1 (relative stereo) .
≤ 1 µM

Could you tell me which Ki is on file for COC(=O)c1csc(S(=O)(=O)N2CC(Nc3ccc(F)c(F)c3)C(c3ccccc3)C2)c1OC (stereo not shown) ?
≤ 10 µM

Param item = CCCCCCN[C@@H]1CN(S(=O)(=O)c2cn(C)cn2)C[C@H]1c1ncccc1F (relative stereo) ; retrieve measured Ki.
≤ 0.1 µM

----------
- Experimental Target: human GlyT1c transporter (Homo sapiens, UniProt P48067)
- Construct: expressed in transfected cells; host or cells: CHO cells (recombinant; line hGlyT1c_5_CHO is named for the uptake assay)
- Assay Protocol: Radioligand binding assay using recombinant CHO cell membranes expressing human GlyT1
- Measurement Parameters: radioligand binding to human GlyT1c transporter-expressing membranes
pKi: −log10 of the molar value.
Property Label: pKi

Worked examples, 3 molecules total:
| Molecule | Experimental Target | pKi |
| --- | --- | --- |
| Cc1cnc(CN[C@H]2CN(S(=O)(=O)c3cn(C)cn3)C[C@@H]2c2ccccc2)s1 | human GlyT1c transporter (Homo sapiens, UniProt P48067) | ≥ 5.00 |
| Cn1cnc(S(=O)(=O)N2C[C@@H](NCc3ccccn3)[C@H](c3ccc(F)cc3)C2)c1 (relative stereo) | human GlyT1c transporter (Homo sapiens, UniProt P48067) | ≥ 5.00 |
| CC(C)(C)OC(=O)N[C@@H]1CN(S(=O)(=O)c2ccccc2C#N)C[C@H]1c1ccccc1 (relative stereo) | human GlyT1c transporter (Homo sapiens, UniProt P48067) | ≥ 5.00 |

Query: pKi; subject: Cn1cnc(S(=O)(=O)N2C[C@@H](C(=O)NCc3ccccn3)[C@H](c3ccc(F)cc3)C2)c1 (relative stereo)
≥ 5.00

State the recorded pKi for this entry: CC(CN[C@H]1CN(S(=O)(=O)c2cn(C)cn2)C[C@@H]1c1ccccc1)c1ccccc1 (stereo partly drawn)
≥ 6.00

Look up pKi: Cn1cnc(S(=O)(=O)N2C[C@@H]([C@@H]3CCCOC3)[C@H](Nc3cccc(-c4ccccc4)c3)C2)c1 (mixture of isomers)
≥ 6.00

Which measured pKi value corresponds to CCCCCC(=O)N[C@H]1CN(S(=O)(=O)c2cn(C)cn2)C[C@@H]1c1ccccc1 ?
≥ 5.00

----------
- Experimental Target: human GlyT1c transporter (Homo sapiens)
- Construct: expressed in transfected cells; host or cells: CHO cells (recombinant; line hGlyT1c_5_CHO is named for the uptake assay)
- Assay Protocol: Radioligand binding assay using recombinant CHO cell membranes expressing human GlyT1
- Measurement Parameters: radioligand binding to human GlyT1c transporter-expressing membranes
pKi: −log10 of the molar value.
Below, each entry is listed alongside its reported pKi.

Which measured pKi belongs to CCCCCCN(CCCCCC)[C@@H]1CN(S(=O)(=O)c2cn(C)cn2)C[C@H]1c1ncccc1F (relative stereo) [Example 763] , tested on human GlyT1c transporter (Homo sapiens)?
≥ 6.00

Tell me reported pKi for Cn1cnc(S(=O)(=O)N2C[C@@H](Nc3ccc(F)c(F)c3F)[C@H](c3ccccc3)C2)c1 (relative stereo) [Example 234] , tested with human GlyT1c transporter (Homo sapiens).
≥ 6.00

Form field: pKi recorded for Cn1cnc(S(=O)(=O)N2C[C@@H]([C@@H]3CCCOC3)[C@H](Nc3ccc(Cl)c(C(F)(F)F)c3)C2)c1 (relative stereo) [Example 792] with human GlyT1c transporter (Homo sapiens) (enter value)
≥ 5.00

----------
- Experimental Target: human GlyT1c transporter (Homo sapiens)
- Construct: expressed in transfected cells; host or cells: CHO cells (recombinant; line hGlyT1c_5_CHO is named for the uptake assay)
- Assay Protocol: Radioligand binding assay using recombinant CHO cell membranes expressing human GlyT1
- Measurement Parameters: radioligand binding to human GlyT1c transporter-expressing membranes
- Source text: 2. Radioligand binding assays using recombinant CHO cell membranes expressing human GlyT1: […]
pKi: −log10 of the molar value.
Reported pKi is given for each of the following compounds.

# annotated cases, reported pKi shown
| Compound | Recorded Result |
| --- | --- |
| COc1cccc(C(=O)N[C@@H]2CN(S(=O)(=O)c3cn(C)cn3)C[C@H]2c2ccccc2)c1 (relative stereo) [Example 21] | ≥ 5.00 |
| Cn1cnc(S(=O)(=O)N2C[C@@H](NC(=O)c3ccccc3C#N)[C@H](c3ccccc3)C2)c1 (relative stereo) [Example 32] | ≥ 5.00 |
| Cn1cnc(S(=O)(=O)N2C[C@@H](Nc3ccc(C(F)(F)F)cc3)[C@H](c3cccc(F)c3)C2)c1 (relative stereo) [Example 190] | ≥ 6.00 |

Request body: readout pKi, system human GlyT1c transporter (Homo sapiens), query CCCCCNC(=O)[C@@H]1CN(S(=O)(=O)c2cn(C)cn2)C[C@H]1c1ccc(F)cc1 (relative stereo) [Example 626] . Return the value.
≥ 6.00

API: value(readout= pKi, system= human GlyT1c transporter (Homo sapiens), query= Cc1c(C#N)cccc1N[C@@H]1CN(S(=O)(=O)c2cn(C)cn2)C[C@H]1c1ccccc1 (relative stereo) [Example 83] )
≥ 6.00

Identify the measured pKi of CC(C)Oc1cccc(NC2CN(S(=O)(=O)c3cn(C)cn3)CC2c2ccc(F)cc2)c1 (centres unmarked) [Example 349] for human GlyT1c transporter (Homo sapiens).
≥ 7.00

Give human GlyT1c transporter (Homo sapiens) pKi for Cn1cnc(S(=O)(=O)N2C[C@@H](CNc3cccc(C(N)=O)c3)[C@H](c3ccc(F)cc3)C2)c1 (relative stereo) [Example 364]
≥ 5.00

Entry Cn1cnc(S(=O)(=O)N2C[C@@H](CNc3ccc(F)cc3)[C@H](c3ccc(F)cc3)C2)c1 (relative stereo) [Example 367] , system human GlyT1c transporter (Homo sapiens): what pKi was measured?
≥ 7.00

Request body: readout pKi, system human GlyT1c transporter (Homo sapiens), query Cn1cnc(S(=O)(=O)N2C[C@@H](O)[C@H](Nc3cccc(Cl)c3)C2)c1 (relative stereo) [Example 373] . Return the value.
≥ 5.00

Form entry - test system: human GlyT1c transporter (Homo sapiens); read-out: pKi; compound: COCCOCCN[C@H]1CN(S(=O)(=O)c2cn(C)cn2)C[C@@H]1c1ccccc1 [Example 666]
≥ 5.00

Give recorded pKi with human GlyT1c transporter (Homo sapiens) for the following compound: Cc1ccccc1CN[C@@H]1CN(S(=O)(=O)c2cn(C)cn2)C[C@H]1c1ccc(F)cc1 (relative stereo) [Example 153]
≥ 6.00

Give pKi (human GlyT1c transporter (Homo sapiens)) of the following compound: Cn1cnc(S(=O)(=O)N2C[C@@H](NCc3ccncc3)[C@H](c3ccc(F)cc3)C2)c1 (relative stereo) [Example 270]
≥ 5.00

Query pKi on human GlyT1c transporter (Homo sapiens) for Cn1cnc(S(=O)(=O)N2C[C@H](Nc3ccc4c(c3)CCC4)[C@@H](c3ccccc3)C2)c1 [Example 655]
≥ 6.00

Enter reported pKi observed with human GlyT1c transporter (Homo sapiens) for CC1=C(CCN[C@H]2CN(S(=O)(=O)c3cn(C)cn3)C[C@@H]2c2ccccc2)C(C)(C)CCC1 [Example 458]
≥ 5.00
